# credit: ChEMBL document CHEMBL2169764

target: Eukaryotic initiation factor 4A-I (Homo sapiens, UniProt P60842); test: Selectivity index, ratio of EC50 for eIF4FA in human MDA-MB-231 cells transfected with tubulin 5'-UTR-luciferase construct to EC50 for eIF4FA in human MDA-MB-231 cells transfected with c-myc- 5'-UTR-luciferase construct by differential translation assay; type: cell-based
Sequence (P60842 whole entry): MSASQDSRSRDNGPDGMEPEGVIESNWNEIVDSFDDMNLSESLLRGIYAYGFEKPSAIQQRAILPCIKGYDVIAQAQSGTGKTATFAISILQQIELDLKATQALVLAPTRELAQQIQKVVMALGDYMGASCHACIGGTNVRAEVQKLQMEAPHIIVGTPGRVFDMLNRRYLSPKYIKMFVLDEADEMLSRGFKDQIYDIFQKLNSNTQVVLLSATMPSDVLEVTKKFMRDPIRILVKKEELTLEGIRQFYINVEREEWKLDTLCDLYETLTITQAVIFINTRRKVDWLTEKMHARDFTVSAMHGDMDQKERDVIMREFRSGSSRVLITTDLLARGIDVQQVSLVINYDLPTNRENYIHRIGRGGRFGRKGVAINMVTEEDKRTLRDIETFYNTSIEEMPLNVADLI
MEASURED METRIC: Ratio EC50
A bare number is all that is needed in reply.

Need Ratio EC50 of COC(=O)[C@H]1[C@@H](O)[C@@]2(O)c3c(OC)cc(OC)cc3O[C@@]2(c2ccc(C#N)cc2)[C@@H]1c1ccccc1 , thanks.
9

Need Ratio EC50 of COC(=O)[C@H]1[C@@H](O)[C@@]2(O)c3c(OC)cc(O[C@@H]4O[C@@H]([C@H](O)CO)CO[C@H]4OC)cc3O[C@@]2(c2ccc(OC)cc2)[C@@H]1c1ccccc1 [SILVESTROL] , thanks.
9
